Multiple publications report IC50 for UniProt:P35968; what follows is a combined list.
Label rule met when IC50 is strictly below 0.2 µM; otherwise label rule not met.

Does the reported IC50 of the following compound sit strictly below 0.2 µM? CC(F)(F)c1cccc(NC(=O)Nc2ccc(Oc3ccnc(NC(=O)C4CC4)c3)cc2F)c1
rule met

Does the reported IC50 of the following compound sit strictly below 0.2 µM? COc1cccc(-c2cnc(Nc3ccc(N4CCN(C)CC4)c(C)c3)o2)c1
rule met

Does the reported IC50 of the following compound sit strictly below 0.2 µM? COc1cc2nccc(Oc3ccc(NC(=O)c4c5n(cc(C6=CCOCC6)c4=O)CCOC5)cc3)c2nc1OC
rule not met

Does the reported IC50 of the following compound sit strictly below 0.2 µM? C=CC(=O)Nc1cc2c(Nc3ccc(Br)cc3F)ncnc2cc1OCCNc1nccs1
rule not met

Does the reported IC50 of the following compound sit strictly below 0.2 µM? COc1ccc(-n2nc(-c3ccncc3)c(-c3ccc(F)cc3)c2N)cc1
rule not met

Does the reported IC50 of the following compound sit strictly below 0.2 µM? COc1cc2nccc(Oc3ccc4c(C(=O)NC5CC5)coc4c3)c2cc1C(N)=O
rule met

Does the reported IC50 of the following compound sit strictly below 0.2 µM? COCC1=C(C(=O)N2CCN(c3ccc(-c4cc(-c5cnn(C)c5)cn5ncc(C#N)c45)cn3)CC2)CCC1
rule met

Does the reported IC50 of the following compound sit strictly below 0.2 µM? COc1cnc2c(Oc3ccc(NC(=O)c4c(C)n(C)c(C)c(OC)c4=O)cc3F)ccnc2c1
rule not met

Does the reported IC50 of the following compound sit strictly below 0.2 µM? COc1cc(OC)cc(N(CCCO)c2ccc3ncc(-c4ccc(F)nc4)nc3c2)c1
rule not met

Does the reported IC50 of the following compound sit strictly below 0.2 µM? N#Cc1cc2c(Oc3ccc(NC(=O)Nc4ccc(F)cc4F)c(F)c3)ccnc2cc1OCCN1CCOCC1
rule met

Does the reported IC50 of the following compound sit strictly below 0.2 µM? O=C(Nc1ccc(Cl)c(NC(=O)c2cnc(Nc3cccnc3)nc2)c1)c1cccc(C(F)(F)F)c1
rule met

---

Multiple publications report IC50 for Vascular endothelial growth factor receptor 2 (Homo sapiens); what follows is a combined list.

Sure, the documented IC50 for CCCS(=O)(=O)Nc1ccc(F)c(Nc2ncnc3ccc(-c4cccc(C(F)(F)F)n4)cc23)c1F is > 3000 nM

Sure, the documented IC50 for CCOc1ccn(-c2ccc(F)cc2)c(=O)c1C(=O)Nc1ccc(Oc2ccnc3cc(OC(C)C)c4c(c23)OCCO4)c(F)c1 is 50 to 500 nM

Sure, the documented IC50 for COc1cc2nccc(Oc3ccc(NC(=S)NCC(F)(F)F)c(Cl)c3)c2cc1C(N)=O is < 50 nM

Sure, the documented IC50 for Cn1cc(-c2cc(-c3ccc(N4C[C@@H]5[C@@H](CNC(=O)c6ncccc6Cl)[C@@H]5C4)nc3)c3c(C#N)cnn3c2)cn1 is ≤ 10 nM

Sure, the documented IC50 for COc1cccc(C(O)c2c[nH]c3ncc(-c4cccs4)cc23)c1 (stereo not shown) is ≤ 10000 nM

Sure, the documented IC50 for COc1cc2nccc(Oc3ccc(Nc4c(NC5CCC5)c(=O)c4=O)c(Cl)c3)c2cc1C(N)=O is 200 to 1000 nM

Sure, the documented IC50 for COc1cc2ncnc(Oc3ccc(NC(=O)Nc4ccc(F)cc4)c(Cl)c3)c2c2c1OCCO2 is < 50 nM

Sure, the documented IC50 for COc1cc2nccc(Oc3ccc(Nc4c(NC5CC5)c(=O)c4=O)c(Cl)c3)c2cc1C(N)=O is 200 to 1000 nM

Sure, the documented IC50 for c1ccc(-c2cnc(Nc3ccc(CN4CCOCC4)cc3)o2)cc1 is < 1000 nM

Sure, the documented IC50 for O=C1Nc2cccnc2C1=CNc1ccc2ncccc2c1 is 1000 to 10000 nM

Sure, the documented IC50 for COc1cc2c(Oc3ccc4c(c3)OCCN4C(=O)Nc3cc(C)on3)ccnc2cc1O is 777 nM

Sure, the documented IC50 for COCCOc1cc2nccc(Sc3ccc(NC(=O)Nc4ccc(F)cc4)s3)c2cc1C#N is 23 nM

Sure, the documented IC50 for CC(F)(F)c1ccc(F)c(NC(=O)Nc2ccc(Oc3ccnc(NC(=O)C4CC4)c3)c(F)c2)c1 is 7.1 nM

Sure, the documented IC50 for Cc1cc(NC(=O)Nc2ccc(F)c(C(F)(F)F)c2)ccc1Oc1ccnc(NC(=O)C2CC2)c1 is 11.7 nM

Sure, the documented IC50 for CNC(=O)c1cc(Oc2ccc(N(C)C(=O)Nc3cc(-n4cnc(C)c4)cc(C(F)(F)F)c3)cc2)ccn1 is ≤ 10000 nM

Sure, the documented IC50 for Nc1ccc(C2CN=C3c4ccccc4NC(=O)N3C2)cc1 (stereo not shown) is > 10000 nM
